Test system: OVCAR-3
Test: NCI tumour cell line growth inhibition, 48 h
The source made the active and inactive calls. Cut-off read from the data, not from the text of the source: active = GI50 up to about 1.1 µM and inactive = higher.
Reported Endpoint: GI50

{"Compound": "CC(C)C1CC[C@@H](C)C[C@@]1(O)CC(N)=O (stereo partly specified)", "Target Or Test System": "OVCAR-3", "GI50": "> 100 µM (inactive)"}
{"Compound": "Cc1ccc(S(=O)(=O)N/N=C2/C(=O)Nc3c(Cl)cc(Cl)cc32)cc1", "Target Or Test System": "OVCAR-3", "GI50": "60.3 µM (inactive)"}
{"Compound": "COC(=O)c1ccc(Cc2ccc(C(=O)OC)o2)o1", "Target Or Test System": "OVCAR-3", "GI50": "> 378 µM (inactive)"}

Asked: Would you kindly share the measured GI50 for CSC1=N/C(=C\c2ccccc2)C(=O)N1CN1CCCCC1 ?
Given back: > 100 µM (inactive)

Asked: What about C=C1C(=O)OC2C1C(OC(=O)/C(C)=C/C)CC1(C)C(=O)CCC(=C)C21 (stereo unspecified) ?
Given back: 6.92 µM (inactive)

Asked: Now this one: Cc1ccc(-c2cc(N)n(-c3nc4c([nH]3)c(=O)n(C)c(=O)n4C)n2)cc1
Given back: 4.55 µM (inactive)

Asked: Here is the next compound: CN(CCNC(=O)c1nn(C)c2c1Cc1ccccc1-2)CCNC(=O)c1nn(C)c2c1Cc1ccccc1-2
Given back: 11.4 µM (inactive)

Asked: Can you check O=C(O)C(Cc1c[nH]cn1)N1C(=O)c2ccccc2C1=O (stereo unspecified) next?
Given back: 50.5 µM (inactive)

Asked: Please answer likewise for CC(C)c1cc2c(cc1S(=O)(=O)O)[C@@]1(C)CCC[C@@](C)(C(=O)O)C1CC2 (stereo partly specified)
Given back: > 100 µM (inactive)

Asked: Another: COC(=O)C1CC2c3c(c4ccccc4n3C)CC(C1=O)N2C (stereo unspecified)
Given back: 34.8 µM (inactive)

Asked: Then CC1(C)CC2(C)CC1CC2NC(=O)CCN1CCOCC1 (stereo unspecified) ?
Given back: > 100 µM (inactive)

----------
Test system: UO-31
Experiment: NCI tumour cell line growth inhibition, 48 h
Active and inactive are the calls of the source. Rule as the data show it: active = GI50 up to about 1.1 µM and inactive = higher.
Listed here are compounds together with their documented GI50.

Below: 5 compounds and their reported GI50.
{"Compound": "CC1=NNC(=O)C1C1CC(c2c[nH]c3ccccc23)=NN(c2ccccc2)C1=O (stereo unspecified)", "GI50": "> 100 µM (inactive)"}
{"Compound": "CN(Cc1cc(C(C)(C)C)cc(Br)c1O)Cc1cc(C(C)(C)C)cc(Br)c1O", "GI50": "3.61 µM (inactive)"}
{"Compound": "COc1ccc(CC2=NCCc3cc(OC)c(OC)cc32)cc1Br", "GI50": "16.8 µM (inactive)"}
{"Compound": "C(=N\\Nc1nnc(-c2nnc(N/N=C/c3ccccc3)o2)o1)/c1ccccc1", "GI50": "> 10 µM (inactive)"}
{"Compound": "CC(C)c1cc(C(C)C)c(S(=O)(=O)N=[N+]=[N-])c(C(C)C)c1", "GI50": "> 100 µM (inactive)"}

// next entry
Asked: Requested field: GI50. Item: CCCCc1ccc(-n2sc3ncccc3c2=O)cc1
Given back: 11.3 µM (inactive)

----------
Listed below: GI50 values for each entry.
System: SNB-78
Assay: NCI tumour cell line growth inhibition, 48 h
The source made the active and inactive calls. Rule as the data show it: active = GI50 up to about 1.1 µM and inactive = higher.

Reference set, count: 3
{"Compound": "COC(=O)C(=O)C(C(=O)C1=NS(=O)(=O)c2cc(S(N)(=O)=O)c(Cl)cc2N1)c1nc2ccc(C(=O)c3ccccc3)cc2nc1O (centres undefined)", "GI50": "85.1 µM (inactive)"}
{"Compound": "CN1CCCCC(C(O)(c2ccccc2)c2ccccc2)C1=O (centres undefined)", "GI50": "> 100 µM (inactive)"}
{"Compound": "CCN(CC)c1c(C(=O)/C=C/c2ccc(OC)cc2)c(-c2ccccc2)nn(C)c1=O", "GI50": "25 µM (inactive)"}

In the following, a different compound is considered.
Asked: Which measured GI50 value corresponds to CCCN(CCC)CCc1cc(C(C)=O)n(S(=O)(=O)c2ccc(C)cc2)c1 ?
Given back: > 100 µM (inactive)
